melting point for assorted molecules

Solved entries:
molecule="O=C(C1=C(O)C(=O)N(c2nc3ccccc3s2)C1c1ccc(OCc2ccccc2)cc1)c1cc2ccccc2o1 (stereo not shown)" property_name="melting point" observed="213 to 214 °C"
molecule="COCC(=O)C1=C(O)C(=O)N(c2nc3ccc(Cl)cc3s2)C1c1ccccc1F (stereo not shown)" property_name="melting point" observed="253 to 254 °C"
molecule="Cc1ccc(C(=O)C2=C(O)C(=O)N(c3ccc4ncsc4c3)C2c2ccccc2F)o1 (stereo not shown)" property_name="melting point" observed="231 to 232 °C"
molecule="Cc1ccc(C(=O)C2=C(O)C(=O)N(c3ncccn3)C2c2ccccc2F)o1 (stereo not shown)" property_name="melting point" observed="249 to 250 °C"
molecule="CCN(CC)c1ccc(C2C(C(=O)c3ccc(C)o3)=C(O)C(=O)N2c2nc3c(Cl)cccc3s2)cc1 (stereo not shown)" property_name="melting point" observed="223 to 226 °C"

Req: What value of melting point has been recorded for this entry: COc1ccccc1CC(=O)C1=C(O)C(=O)N(c2nc3ccc(Cl)cc3s2)C1c1ccccc1F (stereo not shown)
Resp: 186 to 188 °C

Req: Subsequent entry: CCCCOc1ccc(C2C(C(=O)c3ccc(C)o3)=C(O)C(=O)N2c2nc3ccc(OCC)cc3s2)cc1 (stereo not shown)
Resp: 191 to 192 °C

====

melting point for assorted compounds

Solved entries:
compound="COC1=C(C(C)=O)C(c2ccccc2F)N(c2nc3ccc(Cl)cc3s2)C1=O (centres unmarked)" observed="235 to 236 °C"
compound="Cc1ccc(C(=O)C2=C(O)C(=O)N(c3nc4ccc(Cl)cc4s3)C2c2ccc(OCCCN(C)C)cc2)o1 (centres unmarked)" observed="211 to 213 °C"
compound="COCC(=O)C1=C(O)C(=O)N(c2nc3ccc(F)cc3s2)C1c1ccccc1F (centres unmarked)" observed="228 to 229 °C"
compound="CCCCOc1ccc(C2C(C(=O)c3cc4ccccc4o3)=C(O)C(=O)N2c2nc(C)c(C(C)=O)s2)cc1 (centres unmarked)" observed="186 to 188 °C"

Req: What value of melting point has been recorded for this entry: O=C(COc1ccccc1Cl)C1=C(O)C(=O)N(c2nc3c(Cl)cccc3s2)C1c1ccc(F)cc1 (centres unmarked)
Resp: 143 to 145 °C

Req: Subsequent entry: CCOc1ccc2nc(N3C(=O)C(OC(C)=O)=C(C(=O)c4ccc(C)o4)C3c3ccc(OCCOC(C)=O)cc3)sc2c1 (centres unmarked)
Resp: 114 to 115 °C

Req: Subsequent entry: CCOc1ccc2nc(N3C(=O)C(O)=C(C(=O)c4ccc(C)o4)C3C3CCOC3)sc2c1 (centres unmarked)
Resp: 185 to 186 °C

Req: Subsequent entry: O=C(C1=C(O)C(=O)N(c2nc3ccc(Cl)cc3s2)C1c1ccccc1F)C1CC1 (centres unmarked)
Resp: 246 to 247 °C

Req: Subsequent entry: Cc1ccc(C(=O)C2=C(O)C(=O)N(c3nc4ccc(F)cc4s3)C2c2ccc(Oc3ccccc3)cc2)o1 (centres unmarked)
Resp: 172 to 173 °C

====

melting point for assorted molecules

Solved entries:
molecule="O=C(C1=C(O)C(=O)N(c2nc3ccc(F)cc3s2)C1c1ccccc1F)C1CC1 (centres unmarked)" property_name="melting point" observed="234 to 235 °C"
molecule="COc1ccc2nc(N3C(=O)C(O)=C(C(=O)c4ccc(C)o4)C3c3ccccc3F)sc2c1 (centres unmarked)" property_name="melting point" observed="268 to 269 °C"
molecule="COc1cc(C2C(C(=O)c3ccc(C)o3)=C(O)C(=O)N2c2nc3ccc(F)cc3s2)cc(OC)c1OC (centres unmarked)" property_name="melting point" observed="244 to 245 °C"
molecule="COc1cccc(C2C(C(=O)c3ccc(C)o3)=C(O)C(=O)N2c2nc3c(Cl)cccc3s2)c1 (centres unmarked)" property_name="melting point" observed="255 to 256 °C"
molecule="Cc1ccc(C(=O)C2=C(O)C(=O)N(c3ncc(C)s3)C2c2ccccc2F)o1 (centres unmarked)" property_name="melting point" observed="251 to 252 °C"

Req: What value of melting point has been recorded for this entry: O=C(C1=C(O)C(=O)N(c2nc3ccc(Cl)cc3s2)C1c1ccc(F)cc1)C1CCC1 (centres unmarked)
Resp: 271 to 273 °C

Req: Subsequent entry: Cc1ccc(C(=O)C2=C(O)C(=O)N(c3nc4ccc(F)cc4s3)C2c2ccc(F)c(F)c2)o1 (centres unmarked)
Resp: 223 to 224 °C

Req: Subsequent entry: CCOC(=O)CCC(=O)C1=C(O)C(=O)N(c2nc3c(Cl)cccc3s2)C1c1ccc(Cl)cc1 (centres unmarked)
Resp: 215 to 216 °C
